- Tested on: MCF7
- assayText: Antiproliferative activity in human MCF7 cells assessed as cell growth inhibition by MTT assay
- Type: functional, cell-based
Exercise: state measured IC50 for each of the molecules provided.

Lab book: IC50 of CCCCCCCC/C=C\CCCCCCCC(=O)NCc1ccc(O)c(OC)c1 noted as 1000 nM

The molecule identified as COc1cc(CNC(=O)CCCC/C=C/C(C)C)ccc1O registered its IC50 at 100000 nM

Lab note: CCCCCCCCCCCCCCCC(=O)NCc1ccc(O)c(OC)c1 gave IC50 of 2200 nM

According to the records, this molecule CCCCC/C=C\C/C=C\C/C=C\C/C=C\CCCC(=O)NCc1ccc(O)c(OC)c1 displays IC50 of 400 nM

FYI, the data here is from ChEMBL document CHEMBL5226292.
